# Subject Of Test: BSA (UniProt P02769)
# Sequence (P02769 25-607 limits assumed): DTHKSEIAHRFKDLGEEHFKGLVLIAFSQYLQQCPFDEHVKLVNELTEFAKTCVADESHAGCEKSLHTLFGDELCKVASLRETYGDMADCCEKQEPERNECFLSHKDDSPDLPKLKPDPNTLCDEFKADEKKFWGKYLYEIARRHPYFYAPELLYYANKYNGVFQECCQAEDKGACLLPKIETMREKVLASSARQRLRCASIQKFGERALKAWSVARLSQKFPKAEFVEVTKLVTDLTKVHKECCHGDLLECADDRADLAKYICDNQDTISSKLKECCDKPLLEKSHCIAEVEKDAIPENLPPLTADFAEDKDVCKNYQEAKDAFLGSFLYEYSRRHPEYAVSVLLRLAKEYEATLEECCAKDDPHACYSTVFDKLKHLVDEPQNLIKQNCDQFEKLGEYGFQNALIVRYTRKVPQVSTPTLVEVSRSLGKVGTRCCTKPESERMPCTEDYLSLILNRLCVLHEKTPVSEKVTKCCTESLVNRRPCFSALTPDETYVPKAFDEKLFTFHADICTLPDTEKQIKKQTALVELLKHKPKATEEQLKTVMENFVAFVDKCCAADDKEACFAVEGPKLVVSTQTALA
# Experimental Details: scFv ELISA
Assay Readout: OD450 (OD450)

[
  {
    "Binder": "PcOxP_DB02_H02 (scFv, V domains shown, scFv in periplasmic extract) VH: EVQLLESGGGLVQPGGSLRLSCAASGPTFSDFYMEWVRQAPGKGLEWVAASRNKANDYTTEYADSVKGRFTISRDNSKNTLYLQMNSLRAEDTAVYYCARDYYGSSYWYFDVWGQGTLVTVSS VL: DIVMTQSPDSLAVSLGERATINCTASESLYSSKHKVHYLAWYQQKPGQPPKLLIYGASNRYIGVPDRFSGSGSGTDFTLTISSLQAEDVAVYYCAQFYDYPLTFGGGTKVEIK",
    "Assay Readout": "OD450",
    "Numeric Result": 0.06
  },
  {
    "Binder": "PcOxP_DB02_C01 (scFv, V domains shown, scFv in periplasmic extract) VH: EVQLLESGGGLVQPGGSLRLSCAASGFTFSDAYMEWVRQAPGKGLEWVAASRNKANDYTTEYADSVKGRFTISRDNSKNTLYLQMNSLRAEDTAVYYCARDYYGSSYWYFDVWGQGTLVTVSS VL: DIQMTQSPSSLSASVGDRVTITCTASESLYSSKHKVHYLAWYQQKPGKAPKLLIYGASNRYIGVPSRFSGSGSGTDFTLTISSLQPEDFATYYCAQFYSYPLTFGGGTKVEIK",
    "Assay Readout": "OD450",
    "Numeric Result": 0.1
  },
  {
    "Binder": "PcOxP_DB01_F11 (scFv, V domains shown, scFv in periplasmic extract) VH: EVQLLESGGGLVQPGGSLRLSCAASGFTFSSYYMEWVRQAPGKGLEWVAASRNKANDYTTEYADSVKGRFTISRDNSKNTLYLQMNSLRAEDTAVYYCARDYYGSSYWYYDVWGQGTLVTVSS VL: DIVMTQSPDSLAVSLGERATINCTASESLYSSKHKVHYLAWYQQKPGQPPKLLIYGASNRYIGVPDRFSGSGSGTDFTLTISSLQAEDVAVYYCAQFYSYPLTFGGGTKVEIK",
    "Assay Readout": "OD450",
    "Numeric Result": 0.07
  },
  {
    "Binder": "PcOxP_DB03_G07 (scFv, V domains shown, scFv in periplasmic extract) VH: EVQLLESGGGLVQPGGSLRLSCAASGFTFSDHYMEWVRQAPGKGLEWVAASRNKANDYTTEYADSVKGRFTISRDNSKNTLYLQMNSLRAEDTAVYYCARDYYGQSYWYFDVWGQGTLVTVSS VL: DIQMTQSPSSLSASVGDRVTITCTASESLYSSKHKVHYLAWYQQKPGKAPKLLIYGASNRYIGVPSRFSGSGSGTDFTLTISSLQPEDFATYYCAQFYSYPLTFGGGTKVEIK",
    "Assay Readout": "OD450",
    "Numeric Result": 0.1
  },
  {
    "Binder": "PcOxP_DB03_B09 (scFv, V domains shown, scFv in periplasmic extract) VH: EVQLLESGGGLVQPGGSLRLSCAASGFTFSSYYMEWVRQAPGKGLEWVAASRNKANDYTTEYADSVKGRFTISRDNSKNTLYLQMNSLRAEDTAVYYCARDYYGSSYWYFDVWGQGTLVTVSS VL: DIVMTQSPDSLAVSLGERATINCTASESLYSSKHKVHYLAWYQQKPGQPPKLLIYGAANRYIGVPDRFSGSGSGTDFTLTISSLQAEDVAVYYCAQFYSYPLTFGGGTKVEIK",
    "Assay Readout": "OD450",
    "Numeric Result": 0.08
  }
]

Data origin: patent US20250320312A1
